system: TGFBR1 mRNA; experiment: remaining TGFBR1 mRNA relative to control siRNA (off-target knock-down) (fraction of control); quantification method: branched DNA; higher = less knock-down
remaining TGFBR1 mRNA values, listed per item
parameter.measured: remaining TGFBR1 mRNA

1) AUAUGUAAGACCUUCCUUCTT    0.38
2) AUCCUGAGAUGUCAGCAGCTT    1.42
3) AUCUAAACUCCUCUGGAGCTT    0.76
4) UGAUAGCACCAACACAAAGTT    0.44

---

tested on: TGFBR1 mRNA; experiment: remaining TGFBR1 mRNA relative to control siRNA (off-target knock-down) (fraction of control); quantification method: branched DNA; higher = less knock-down
parameter.measured: remaining TGFBR1 mRNA

1) UUCCUUGGUACGGCCGCUCTT    0.87
2) UGGUGAAGAGGCACUUAACTT    0.69
3) AAAAACCCUUUCCUGGGGCTT    0.36
4) UGAUGUUGAUCUGGGGCACTT    0.55
5) GUUCAGCAGCAGCAGACCATT    1.16
6) AAUGCUGUUGGCAGCCAGATT    0.71
7) UCCAUGGAUGCAGAAGUCCTT    0.96
8) UCACCUUGCAGGAAGGAAGTT    1.26
9) AUGCUCCCUCUCAUACUCUTT    0.9
10) UCUCGGAGGCAGUUCCAGCTT    0.86
11) AGACUGCAAAUAUUCCUGATT    1.31
12) AUGGACAUUUACGGUAGUGTT    0.44
13) AAAUGCUCCACCUCUCGGGTT    0.37
14) UUGUCAAAGUGGAACGCUCTT    0.83
15) UAUAGUCCACAGACACGCUTT    0.92
16) AUUAUGUCCUCUACGAUUATT    0.76
17) UCUUGGCUUUGACACCGAGTT    0.48
18) AUCCUUGGCCAGUUUGGUCTT    1.19
19) AGGUCAUCACGUACUUUUUTT    0.16
20) UCAACAAGCUAAGUCUGCCTT    1.1
21) CUUGGUACAGCACAUGGUUTT    0.55
22) CAAACAGCGGUUGGAAUAATT    0.81
23) UUCGUCGAUGGCUUCGUCUTT    0.67
24) AAUCCUCUGGUGACUGCUGTT    1.13
25) CUACCAUCAAUCCGGUAGGTT    0.94
26) UUGUGCUGCAUACGGAGCCTT    1.69
27) GUUCUUGGGCUAUGUCCAATT    0.89
28) AGCGUCCUGAAGACUGGAUTT    0.27
29) CUUGACUUCUGGGGUCCACTT    0.92
30) GAUGAAGAAGAGCGCAGCATT    1.27
31) UCAAGUGCAUCUCCACAGCTT    1.29
32) GAUGUUCCACAAAUUCCACTT    0.85
33) UGUGUAGCACAUGGGACACTT    1.05
34) CCCAAGUCAUCCUGGUUGUTT    0.83
35) UUCCUUGGCUGUGAUGCUCTT    0.93
36) AUGGUGUGGCUCGUCGUGCTT    0.45
37) UCCAGCUGUUUCGUUCCUCTT    0.85

---

tested on: TGFBR2 mRNA; test: remaining TGFBR2 mRNA relative to control siRNA (off-target knock-down) (fraction of control); quantification method: branched DNA; higher = less knock-down
Mark satisfied only when remaining TGFBR2 mRNA stays strictly below 0.5. Values equal to the cut-off are not satisfied.

1) UCACCUUGCAGGAAGGAAGTT    not satisfied
2) UGCUUGAGUAGUGCUAGUUTT    not satisfied
3) AUAUGUAAGACCUUCCUUCTT    satisfied
4) UGUGUAGCACAUGGGACACTT    not satisfied
5) AAGUCUGACUCGGUAAGUATT    not satisfied
6) GCUGAAUGAGGGUAGUCUUTT    not satisfied
7) UUGAGCGAUUCCAGCUGCATT    not satisfied
8) UUGGAGCCCUUUCCUUUCUTT    satisfied
9) UCCACGAUGAAGGGAUGCUTT    not satisfied
10) AGGCAACAGGGAUGAGAUGTT    satisfied
11) GGAAGUGUCAUGGAAGGUGTT    satisfied
12) AUAAGACAAGUGGUCGGGGTT    not satisfied
13) UCUGGUCUCAGCCAUUGAATT    not satisfied
14) UCAAGGUGGACAAAGCUCUTT    satisfied
15) UGAUGUUGUCUUGUCUGGUTT    satisfied
16) UUGCAAGCCCAGAUCAGACTT    not satisfied
17) AUUGUUCCGGAAAUAGGUCTT    not satisfied
18) AUGUUCCGCCUGCUUUUGCTT    satisfied
19) GUUCUUGGGCUAUGUCCAATT    satisfied
20) UUAUUGGGCAAAAUCCGGGTT    not satisfied
21) UUAUCCUGAUCACGUCUAGTT    satisfied
22) UUCAAUAGUUGUCAGAGGCTT    not satisfied
23) UGGAGCUGCACAUAUUCCUTT    satisfied
24) UGGGCUUUUCUCUUCUCUCTT    not satisfied
25) AUCCUUGGAGAUGAGCUGGTT    satisfied
26) CUCCUUGGCACACUUCUCATT    satisfied
27) UCAAGCCCAGAGGUGUCAUTT    not satisfied
28) UUUUCCUGGCCUCUGAUCCTT    satisfied
29) GAUGAAGAAGAGCGCAGCATT    not satisfied
30) AGAGAUUCCUUUUCUUCACTT    not satisfied
31) GGGUUUUCCCAGUCACGACTT    not satisfied
32) AUGGAGUAGCAUCACUCUCTT    satisfied
33) UAUAGUCCACAGACACGCUTT    not satisfied
34) AGUGGUACCACGAGCAAAGTT    not satisfied
35) AUGCACUGAAGAAUUUCUUTT    not satisfied
36) UGGAAGACGCUUUAAAGGCTT    satisfied
37) AGAUCCAGGAUUACGCCAGTT    not satisfied
38) UCCAGCUGCAUUCCUCGCUTT    satisfied
